test: Cmax in female BALB/c mouse at 5 mg/kg, ip at 30 min by LC-MS/MS analysis; type: ADME, organism-based; design: time 30 min, dose 5 mg/kg, route ip; conditions: in vivo, 0.5 h
value.kind: Cmax

# molecule.smiles, result.value
records = [
    ("N=c1c2c(-c3ccccc3)c(-c3ccccc3)n(Cc3ccccc3)c2ncn1[C@H]1CC[C@H](O)CC1", "910 nM"),
]

###

assay: Cmax in female BALB/c mouse at 25 mg/kg, ip at 30 min by L-MS/MS analysis; assay type: ADME, organism-based; design: dose 25 mg/kg, time 30 min, route ip; conditions: in vivo, 0.5 h

# compound, value.units, Cmax
measured = [
    ("N=c1c2c(-c3ccccc3)c(-c3ccccc3)n(Cc3ccccc3)c2ncn1[C@H]1CC[C@H](O)CC1 [ML-246]", "µM", 6.17),
]

###

tested on: PC-3M; experiment: Anticancer activity in human PC-3M cells expressing PTB/GFP fusion protein assessed as perinucleolar compartment disassembly and measured after 24 hrs by Hoechst 33342 staining based microscopic method; assay type: functional, cell-based; conditions: read-out: IC50
pIC50: −log10 of the molar value.
Examples of compounds with documented pIC50 follow.

# compound, pIC50
rows = [
    ("N=c1c2c(-c3ccccc3)c(-c3ccccc3)n(CCc3ccccc3)c2ncn1C[C@@H]1CCCC[C@H]1O (relative stereo)", 5.57),
    ("O[C@H]1CC[C@H](Nc2ncnc3c2c(-c2ccccc2)c(-c2ccccc2)n3Cc2ccccc2)CC1", "< 4.70"),
    ("Cc1c(C)n(Cc2ccccc2)c2ncn([C@H]3CC[C@H](O)CC3)c(=N)c12", "< 4.70"),
    ("N=c1c2c(-c3ccccc3)c(-c3ccccc3)n(Cc3ccccc3)c2ncn1CCN", "< 4.70"),
    ("COc1ccc(-c2c(-c3ccc(OC)cc3)n(Cc3ccccc3)c3ncn(C4CCOCC4)c(=N)c23)cc1", "< 4.70"),
    ("N#Cc1c(-c2ccccc2)c(-c2ccccc2)n(Cc2ccccc2)c1N", "< 4.70"),
    ("OCCCNc1ncnc2c1c(-c1ccccc1)c(-c1ccccc1)n2Cc1ccccc1", "< 4.70"),
    ("N=c1c2c(-c3ccccc3)c(-c3ccccc3)n(Cc3ccccc3)c2ncn1[C@H](CO)Cc1ccccc1", "< 4.70"),
    ("N=c1c2c(-c3ccccc3)c(-c3ccccc3)n(CCc3ccccc3)c2ncn1CCCCO", 5.35),
    ("COc1ccc(-c2c(-c3ccc(OC)cc3)n(Cc3ccccc3)c3ncn([C@H]4CC[C@H](O)CC4)c(=N)c23)cc1", "< 4.70"),
    ("N=c1c2c(-c3ccccc3)c(-c3ccccc3)n(CCc3ccccc3)c2ncn1C1CCOCC1", 6.02),
    ("COc1ccc(CCn2cnc3c(c(-c4ccccc4)c(-c4ccccc4)n3Cc3ccccc3)c2=N)cc1OC", 4.60),
    ("N=c1c2c3c(n(CCc4ccccc4)c2ncn1C1CCOCC1)CCCC3", "< 4.70"),
    ("N=c1c2c(-c3ccccc3)c(-c3ccccc3)n(CC3CC3)c2ncn1CCCO", 5.20),
    ("CN(C)CCCn1cnc2c(c(-c3ccccc3)c(-c3ccccc3)n2Cc2ccccc2)c1=N", 4.90),
    ("COc1cccc2c1C(=O)c1c(O)c3c(c(O)c1C2=O)C[C@@](O)(C(=O)CO)C[C@@H]3O[C@H]1C[C@H](N)[C@H](O)[C@H](C)O1", 6.07),
    ("N=c1c2c3c(n(CCc4ccccc4)c2ncn1CCCO)CCCC3", "< 4.70"),
    ("Cc1c(C)n(Cc2ccccc2)c2ncn(C3CCOCC3)c(=N)c12", "< 4.70"),
]
